Entries annotated with measured PBM binding z-score
Test system: FXR:RXRa (NR concentration 270 nM, RXRa partner concentration 90 nM)
Procedure Summary: PBM binding z-score (relative to random genomic background probes); higher = stronger binding; sequences stand for … in GC…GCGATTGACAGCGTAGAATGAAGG
Property Name: PBM binding z-score

> print(dat)
                        query.sequence  assay.result
 1  TCTTGTAGATCAAAGGTTAAGACAGCCGAAGCCT          1.72
 2  ACTAGCAGGCCAAGGGTGACTCAAGATTAGTCCG        -0.498
 3  ATATGTAGGTTAGGGTCATTCATAAAGTAGGGAA          5.45
 4  TCGAGTAGGTTACGAGGGCATTCAGGGATGAAGA         0.963
 5  ATATGTAGGTTAGCTGGGGTCATTCCGACTAGGC          4.03
 6  TCGAGTAGGTTACGGGGGCAATCAGGGATGAAGA          1.97
 7  CGAACTAGGTCAAAGGACAGTGGAAGGCGACGTA          3.72
 8  CCTTACGGGTCAAGGTTGTAGCACGGGTGGTACG          4.89
 9  CGTCAAAGTTCAAGGTAATGTAACAGAAAGCAGC           5.9
10  TCGAGTAGGTTACTGGGGCATTCAGGGATGAAGA         0.441
11  AAATGTAGGTTAAGGGTCATTCAGGTTGGTTCGC          5.31
12  TCGAGTAGGTTACGGGGGCATTCACGGATGAAGA          2.41
13  TCGAGTCGGTTACGGGGGCATTCAGGGATGAAGA           1.7
14  CGATCTAGGTCACCAGGACAGTGAAGAGGTTGGA          3.81
15  CTAGGTAGGTTAAGGGGGTCATTCAGTTTGAAAG          4.79
16  CCAACTAGGTCATTGACAGGACAGTGAATAGTAA          4.34
17  AGTCAAAGTTCACGAGGTAACGTAAGATTCAGCT           7.1
18  CGAACTAGGTCAAAGGAGAGTGAAAGGCGACGTA          3.72
19  TCGAGTAGGATACGGGGGCATTCAGGGATGAAGA          1.26
20  CGAACTAGGTCACCAGGACACTGAAGAGGTTGGA          3.92
21  ACTAGAAGGCCAAGGGTCACTCAAGATTAGTCCG          3.27
22  CCTAGTTGGTCAGGAAGTCACACACCGGATATGA         0.197
23  CCTTACGGGTCAAGGTAATAGCACGGGTGGTACG          5.58
24  CCTACTGGGCCATTCAGAGGTCATTGATCATATG          2.92
25  CCAGACAGGTGAAAGGTAACTCCGTCTGGTACGC         0.568
26  CGAACTAGGTCACCAAGACAGTGAAGAGGTTGGA          3.75
27  CCGACTTGGGCAAAGGTTACCATACTCAGTACGA         0.847
28  CGAACTAGGTCAAAGGACCGTGAAAGGCGACGTA          3.56
29  ATATGTAGGTTAGGGTCATTGAGAAAGTAGGGAA          4.91
30  AGAGTGAGGTTACCAAAGATCAGGGAAACGCTTG          2.09
31  CCATGTAGGTTAAGGGGGTCATTCAGTTTGAAAG          4.98
32  CTATGTAGGTTTAGGGGGTCATTCAGTTTGAAAG          4.33
33  CGAACTAGGTCAAAGGAAAGTGAAAGGCGACGTA          3.12
34  CCTACTGTGCCATTCAGAGGTCATTGATCATATG          2.84
35  GCTTCCGGGTCAAAGGTTATAGCATGAATAGAAT          7.32
36  CGTCGGAGGACAACAGGAGGTCAGAGCTGCCAGA          1.46
37  CCGAGCAGGTTACGAGGGGGCATTCAGTGCGAAT          2.35
38  CCGAGTAGGTTACGAGGGGGCACTCAGTGCGAAT          2.63
39  ATCGAAAGGTCGTGAGGTGAGTACACAGAAAGGC          4.79
40  CTCGAAAGGTCGGTTGAGGTGAGTAAACGGATAA           2.7
41  CATACAGGGTCATCTAGGCCAGAGTAGGGACGGC          6.67
42  TCATATAGGTAAAAGGTCAAAGTCGGTGTGGTAA          6.77
43  ATATGTGGGTTAGGGTCATTCAGAAAGTAGGGAA          5.21
44  CGAACTAAGTCATCCAGGACAGTGAATACATTGA        0.0178
45  CAAACTAGGTCACAGAGGTCAACGTCCGTGCGTA          7.51
46  TTACCAAAGTGAAAGGTCGTTGATGCACGCCTTG          1.49
47  GATACAGAGTCAGCTAGAGGCCAGAGTATGGAAA        -0.527
48  CTATGTAGGTTAAGGGGGTCGTTCAGTTTGAAAG          2.32
49  CGTCCAAGGTCAGTGAGGTCAGTGAATGCCGAGT          5.29
50  CGAACTACGTCACCAGGACAGTGAAGAGGTTGGA       -0.0876
51  CCGACTGGGCCATTCAGAGGTCATTGATCATATG          2.92
